biological target: α-Glucosidase (EC 3.2.1.20); assay: Assay of α-glucosidase; conditions: read-out: Inhibition (IC50) α-Glucosidase; isolated compounds; pNPG substrate, pH 6.8, 37°C; mean±SD of triplicate
MEASURED QUANTITY: IC50 (µM)

Field: example entries. Status: answers known.
[[record]]
compound_string = "CC(C)=CCc1c(O)ccc(C(=O)[C@H]2[C@@H](c3c(O)cc(-c4cc5ccc(O)cc5o4)cc3O)C=C(C)C[C@@H]2c2ccc(O)cc2O)c1O"
target_entity = "α-Glucosidase (EC 3.2.1.20)"
measured_quantity = "IC50"
obs_value = 6

[[record]]
compound_string = "Oc1cc(O)cc(/C=C/c2ccc(O)cc2O)c1"
target_entity = "α-Glucosidase (EC 3.2.1.20)"
measured_quantity = "IC50"
obs_value = 273

[[record]]
compound_string = "Oc1cc(O)cc(-c2cc3ccc(O)cc3o2)c1"
target_entity = "α-Glucosidase (EC 3.2.1.20)"
measured_quantity = "IC50"
obs_value = 168


[P] CC(C)=CCc1cc2cc(-c3cc(O)cc(O)c3)oc2cc1O
[Q] CC(C)=CCc1c(O)cc(-c2cc3ccc(O)cc3o2)cc1O
Data request: # min-compare on IC50 between P and Q Output the label that corresponds to your choice.
Data returned: P
